experiment: qHTS of pediatric cancer cell lines to identify multiple opportunities for drug repurposing: Primary screen for Rh30 cells (AID 1347107); further: nearly all actives have a fitted effect of over 75% in size
run.parameters: Rh30 rhabdomyosarcoma viability, CellTiter-Glo luminescence, 48 h; series mostly up to 46 µM
Results filed as inconclusive are left out. Activity calls are given as the source filed them. The call rests on the fitted dose curve; in most records, active means well fitted cell-killing curve with a large enough effect; inconclusive means small, poorly fitted or top-dose-only effect; inactive means no such curve, though single readings can be large or run the other way.
Would you mind answering with one of these outcomes? 1 (active), -1 (inactive)

Assay result, entry CN1CCCN(C(=O)c2cccc(-c3ccc(C=C4C(=O)Nc5ccc(Cl)cc54)o3)c2)CC1 — outcome?
1

Continuing:
Assay result, entry C=CC(=O)Nc1cccc(Nc2nc(NC3CCC(N(C)C)CC3)nc3c2ncn3C(C)C)c1 (stereo unspecified) — outcome?
-1

Next compound up: C#Cc1cccc(Nc2ncnc3cc(OCCOC)c(OCCO)cc23)c1
-1

Next compound up: CC(=O)N[C@@H]1[C@H](O[C@@H]2c3ccc(c(Cl)c3)Oc3cc4cc(c3O[C@H]3O[C@H](CO)[C@@H](O)[C@H](O)[C@H]3NC(=O)CCCCCCCC(C)C)Oc3ccc(cc3Cl)C[C@H]3NC(=O)[C@H](N)c5ccc(O)c(c5)Oc5cc(O)cc(c5)[C@H](NC3=O)C(=O)N[C@H]4C(=O)N[C@H]3C(=O)N[C@@H]2C(=O)N[C@@H](C(=O)O)c2cc(O)cc(O[C@H]4O[C@H](CO)[C@@H](O)[C@H](O)[C@H]4O)c2-c2cc3ccc2O)O[C@H](CO)[C@@H](O)[C@@H]1O
-1

Next compound up: COc1cc(OC)c(NC(=O)Nc2cc(C)on2)cc1Cl
-1

Next compound up: OCCN1C[C@H](O)[C@@H](O)[C@H](O)[C@@H]1CO
-1
